Source of measurements: ChEMBL document CHEMBL2218924

target: Insulin-like growth factor 1 receptor (Homo sapiens)
assay.conditions: at 10 µM
Assign labels as follows, please: Criterion met for residual activity below 90%; Criterion not met for residual activity equal to or exceeding 90%.

                            substance_smiles     assigned_label
 0  CC[n+]1c(/C=C/N(C)c2ccccc2)n(-c2ccccc2)c2ccc(-c3nc4ccccc4s3)cc21      Criterion met
 1  Nc1cccc(-c2cc3c(Oc4cccc(O)c4)ncnc3[nH]2)c1      Criterion met
 2            Cc1nc(-c2ccccc2)c(-c2ccncc2)o1  Criterion not met
 3       CCOc1cc2ncnc(Nc3cccc(Br)c3)c2cc1OCC  Criterion not met
 4  COc1cc2ncnc(Nc3ccc(NC(=O)c4ccccc4)cc3)c2cc1OC  Criterion not met
 5       CCN(CC)CCCCN1c2ccccc2Oc2ccc(Cl)cc21  Criterion not met
 6     CCC(=O)Nc1ccc2ncnc(Nc3cccc(Br)c3)c2c1  Criterion not met
 7     CC(C)n1cnc2c(NCc3ccccc3)nc(NCCCO)nc21      Criterion met
 8              Oc1c2ccccc2c2c3c(cccc13)N=N2      Criterion met
 9  O=C(Nc1cccc(Nc2nccc(Nc3cccc(C(F)(F)F)c3)n2)c1)C1CC1  Criterion not met
10        Oc1ccc(Nc2nc(-c3ccc(Cl)cc3)cs2)cc1  Criterion not met
11      COc1cc2ncnc(Nc3ccc(O)c(Br)c3)c2cc1OC      Criterion met
12  O=Nc1c(-c2c(O)[nH]c3ccccc23)[nH]c2ccccc12      Criterion met
13              Cc1ccc(S(=O)(=O)/C=C/C#N)cc1  Criterion not met
14      c1ccc(-c2n[nH]cc2-c2ccnc3ccccc23)nc1      Criterion met
15  Nc1nc(Nc2ccc(S(N)(=O)=O)cc2)nn1C(=S)Nc1c(F)cccc1F      Criterion met
16           CNc1cc2c(Nc3cccc(Br)c3)ncnc2cn1  Criterion not met
17  CCN(CC)C(=O)c1ccc(Nc2nc(OCC3CCCCC3)c3nc[nH]c3n2)cc1      Criterion met
18  O=C(O)c1ccc2c3c1cccc3c(=O)n1c3ccccc3nc21  Criterion not met
19  O=C1NC(=O)/C(=C/c2ccc3c(c2)OC(F)(F)O3)S1  Criterion not met

----------
The reader will find reported residual activity values listed item by item below.
target: Misshapen-like kinase 1 (Homo sapiens) (UniProt Q8N4C8)
Sequence (Q8N4C8 whole entry, looked up): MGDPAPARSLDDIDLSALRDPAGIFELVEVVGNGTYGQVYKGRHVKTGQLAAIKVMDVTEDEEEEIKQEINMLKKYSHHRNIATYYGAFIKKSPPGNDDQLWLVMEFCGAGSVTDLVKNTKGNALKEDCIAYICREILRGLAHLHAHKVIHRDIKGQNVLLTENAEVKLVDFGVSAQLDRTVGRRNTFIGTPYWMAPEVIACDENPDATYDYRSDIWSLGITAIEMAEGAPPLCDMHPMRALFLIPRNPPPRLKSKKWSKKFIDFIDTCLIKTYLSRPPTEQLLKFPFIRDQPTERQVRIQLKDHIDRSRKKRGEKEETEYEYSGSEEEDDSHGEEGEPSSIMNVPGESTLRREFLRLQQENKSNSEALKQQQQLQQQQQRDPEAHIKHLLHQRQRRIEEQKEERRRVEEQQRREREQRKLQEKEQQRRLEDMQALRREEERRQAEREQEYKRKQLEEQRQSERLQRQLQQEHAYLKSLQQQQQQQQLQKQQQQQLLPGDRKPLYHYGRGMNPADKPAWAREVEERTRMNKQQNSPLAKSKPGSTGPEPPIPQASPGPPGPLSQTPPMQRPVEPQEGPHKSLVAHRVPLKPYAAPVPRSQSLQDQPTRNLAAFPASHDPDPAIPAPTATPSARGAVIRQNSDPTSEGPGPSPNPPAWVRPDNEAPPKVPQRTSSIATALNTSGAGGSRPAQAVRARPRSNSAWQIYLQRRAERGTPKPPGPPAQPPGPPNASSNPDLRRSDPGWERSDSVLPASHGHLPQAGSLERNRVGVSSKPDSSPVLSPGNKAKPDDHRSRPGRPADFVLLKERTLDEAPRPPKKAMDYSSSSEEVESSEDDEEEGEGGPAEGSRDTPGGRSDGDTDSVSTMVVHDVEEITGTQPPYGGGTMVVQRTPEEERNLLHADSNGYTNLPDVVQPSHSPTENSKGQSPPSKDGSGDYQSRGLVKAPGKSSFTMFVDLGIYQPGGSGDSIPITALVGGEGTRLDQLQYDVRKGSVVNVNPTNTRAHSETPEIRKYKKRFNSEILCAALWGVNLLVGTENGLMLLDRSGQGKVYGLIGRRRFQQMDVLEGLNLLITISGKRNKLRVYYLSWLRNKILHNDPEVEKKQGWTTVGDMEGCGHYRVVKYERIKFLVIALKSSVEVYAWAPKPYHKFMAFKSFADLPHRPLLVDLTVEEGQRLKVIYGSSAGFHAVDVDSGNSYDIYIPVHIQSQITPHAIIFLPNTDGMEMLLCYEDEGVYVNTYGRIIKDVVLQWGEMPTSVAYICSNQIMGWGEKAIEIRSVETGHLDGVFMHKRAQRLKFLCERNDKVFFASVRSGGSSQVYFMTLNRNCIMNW
assay.conditions: at 10 µM
readout.label: residual activity (%)

In [3]: df
Out[3]:
                                    compound  measurement_units  data_value
 0      CN(C)c1ccc(/C=C2\C(=O)Nc3ccccc32)cc1                  %          30
 1   Nc1ccc2ncnc(NCCc3ccc(Oc4ccccc4)cc3)c2c1                  %          82
 2  O=C1Nc2ccccc2/C1=C1/Nc2ccccc2/C1=N\OCCC(O)CO (configuration not stated)                  %          17
 3      COc1cc2ncnc(Nc3ccc(O)c(Br)c3)c2cc1OC                  %          47
 4      c1ccc(-c2n[nH]cc2-c2ccnc3ccccc23)nc1                  %          27
 5              Oc1c2ccccc2c2c3c(cccc13)N=N2                  %          50
 6          COc1cccc(-c2cc(=O)c3ccccc3o2)c1N                  %          96
 7               Cc1cc2ncc(-c3ccccc3)nc2cc1C                  %          82
 8  COc1cc2ncnc(N3CCN(C(=O)Nc4ccc(Oc5ccccc5)cc4)CC3)c2cc1OC                  %          88
 9  COc1ccc(C(=O)Nc2sc3c(c2C(N)=O)CCCC3)cc1OC                  %          92
10  O=Nc1c(-c2c(O)[nH]c3ccccc23)[nH]c2ccccc12                  %          10
11  COc1ccc(CNc2nc(N(CCO)CCO)nc3c2ncn3C(C)C)cc1                  %          92
